- measuredOn: hROMK (hKir1.1) (Homo sapiens)
- Construct: expressed in transfected cells
- Sequence (P48048 1-391): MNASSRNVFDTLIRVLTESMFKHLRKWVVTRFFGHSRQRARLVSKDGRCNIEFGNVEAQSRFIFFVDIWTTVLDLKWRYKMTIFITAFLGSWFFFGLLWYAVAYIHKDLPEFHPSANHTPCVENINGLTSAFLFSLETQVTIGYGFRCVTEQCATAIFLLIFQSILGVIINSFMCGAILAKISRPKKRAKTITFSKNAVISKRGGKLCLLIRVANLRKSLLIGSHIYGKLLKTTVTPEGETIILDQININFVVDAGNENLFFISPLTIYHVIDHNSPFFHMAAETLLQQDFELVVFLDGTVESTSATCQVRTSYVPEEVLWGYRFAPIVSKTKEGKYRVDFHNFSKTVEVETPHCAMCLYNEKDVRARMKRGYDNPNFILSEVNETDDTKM
- methodDescription: Thallium Flux Assay (ROMK channel functional thallium flux, FLIPR-Tetra)
- Format: cell-based
- measurementSetup: HEK293 cells stably expressing hROMK (hKir1.1); 30 min compound incubation
reportedMetric: IC50 (nM)

Example entries begin here.
CC1=C(N2C(=O)C3(CCN(C[C@@H](O)c4ccc(-n5cnnn5)nc4)CC3)CC2C)COC1=O (single isomer, unassigned) [Example 64]: 50
O=C1C=C(N2C(=O)C3(CCN(C[C@H](O)c4ccc(-n5cnnn5)nc4)CC3)CC2C2CC2)CO1 (mixture of isomers) [Example 215]: 30

(I) CC1=C(N2CCC3(CCN(C[C@@H](O)c4cccc(-n5cnnn5)c4)CC3)C2=O)COC1=O
(II) CC1=C(N2CCC3(CCN(C(C)(C)C(O)c4ccc(-n5cnnn5)cn4)CC3)C2=O)COC1=O (single isomer, unassigned) [Example 300]
(III) CC1=C(N2CCC3(CCN(C[C@H](O)c4ccc(-n5cnnn5)nc4)CC3)C2=O)COC1=O
Order the items by recorded IC50; the first position goes to the largest value. Enter labels, ranked according to the request. I, II, III
(I: 40 nM, II: 20 nM, III: 10 nM)

* * *

- measuredOn: hROMK (hKir1.1) (Homo sapiens)
- Construct: expressed in transfected cells
- methodDescription: Thallium Flux Assay (ROMK channel functional thallium flux, FLIPR-Tetra)
- Format: cell-based
- measurementSetup: HEK293 cells stably expressing hROMK (hKir1.1); 30 min compound incubation
pIC50: −log10 of the molar value.
reportedMetric: pIC50

Example entries begin here.
CC1=C(N2CCC3(CC4CCC(C3)N4C[C@H](O)c3nnc(-n4cnnn4)c(C)c3C)C2=O)COC1=O (stereo partly shown) [Example 50]: 7.70
CC1=C(N2C(=O)C3(CCN(CCc4ccc(-n5cnnn5)nn4)CC3)CC2C)COC1=O (racemic) [Example 241]: 7.70
CC1=C(N2C(=O)C3(CCN(C[C@@H](O)c4ccc(-n5cnnn5)cc4C)CC3)CC2C)COC1=O (single isomer, unassigned) [Example 140]: 8.00

(A) CC1=C(N2C=CC3(CCN(CCc4ccc(-n5cnnn5)nn4)CC3)C2=O)COC1=O [Example 247]
(B) CC1=C(N2C=CC3(CCN([C@@H](C)Cc4ccc(-n5cnnn5)nn4)CC3)C2=O)COC1=O (single isomer, unassigned) [Example 272]
(C) COC1CN(C[C@H](O)c2ccc(-n3cnnn3)nc2)CCC12CCN(C1=C(C)C(=O)OC1)C2=O (single isomer, unassigned) [Example 170]
(D) CC1=C(N2CCC3(CCN(C[C@H](O)c4cccc(-n5cnnn5)n4)CC3)C2=O)COC1=O [Example 73]
Order the items by recorded pIC50; the first position goes to the largest value. Enter labels, ranked according to the request. B, A, C, D

* * *

- measuredOn: hROMK (hKir1.1) (Homo sapiens)
- methodDescription: Thallium Flux Assay (ROMK channel functional thallium flux, FLIPR-Tetra)
- measurementSetup: HEK293 cells stably expressing hROMK (hKir1.1); 30 min compound incubation
- Experimental: The following Thallium Flux Assay was performed on each of the final product compounds in the Examples. Cell Culture Conditions—HEK293 cells stably expressing hROMK (hKir1.1) were grown at 37° C. in a 10% CO2 humidified incubator in complete growth media: Dulbecco's Modified Eagle Medium supplemented with non-essential amino acids, Penicillin/Streptomycin/Glutamine, G418 and FBS. […] At FLIPR-Tetra 384: Add stimulant (Thallium/Potassium) solution to microplate and monitor fluorescence. […]
pIC50: −log10 of the molar value.
reportedMetric: pIC50

O=C1C=C(N2C=CC3(CCN(C[C@H](O)c4ccc(-n5cnnn5)nn4)CC3)C2=O)CO1 [Example 201]: 6.92

(1) CC1=C(N2CCC3(CCN(C[C@H](O)c4ccc(-n5cnnn5)nn4)CC3)C2=O)COC1=O [Example 32]
(2) COC1CN(C[C@H](O)c2ccc(-n3cnnn3)nc2)CCC12CCN(C1=C(C)C(=O)OC1)C2=O (single isomer, unassigned) [Example 176]
(3) CC1=C(N2CCC3(CCN(C[C@@H](O)c4cnc(-n5cnnn5)nc4C)CC3)C2=O)COC1=O [Example 86]
(4) O=C1C=C(N2C(=O)C3(CCN(C[C@H](O)c4cnc(-n5cnnn5)cn4)CC3)CC23CC3)CO1 [Example 167]
Order the items by recorded pIC50; the first position goes to the largest value. Enter labels, ranked according to the request. 4, 1, 3, 2
(4: 8.00, 1: 7.70, 3: 7.40, 2: 7.05)

* * *

- measuredOn: hROMK (hKir1.1) (Homo sapiens)
- methodDescription: Thallium Flux Assay (ROMK channel functional thallium flux, FLIPR-Tetra)
- measurementSetup: HEK293 cells stably expressing hROMK (hKir1.1); 30 min compound incubation
reportedMetric: IC50 (µM)

Example entries begin here.
Cc1cc([C@@H](O)CN2CCC3(CC2)CCN(C2=CC(=O)OC2)C3=O)ncc1-n1cnnn1 [Example 7]: 0.08
CC1(C)CC2(CCN(C[C@@H](O)c3ccc(-n4cnnn4)nn3)CC2)C(=O)N1C1=CC(=O)OC1 [Example 190]: 0.05

(P) CC1=C(N2CCC3(CCN(C[C@@H](O)c4ncc(-n5cnnn5)cc4F)CC3)C2=O)COC1=O [Example 148]
(Q) CC1=C(N2C=CC3(CCN(C[C@H](O)c4ccc(-n5cnnn5)nn4)CC3)C2=O)COC1=O [Example 146]
(R) CC1=CC2(CCN(CCc3ccc(-n4cnnn4)nn3)CC2)C(=O)N1C1=CC(=O)OC1 [Example 255]
Reorder the items by IC50, least to greatest. Enter labels, ranked according to the request. R, Q, P

* * *

- measuredOn: hROMK (hKir1.1) (Homo sapiens, UniProt P48048)
- Sequence (P48048 1-391): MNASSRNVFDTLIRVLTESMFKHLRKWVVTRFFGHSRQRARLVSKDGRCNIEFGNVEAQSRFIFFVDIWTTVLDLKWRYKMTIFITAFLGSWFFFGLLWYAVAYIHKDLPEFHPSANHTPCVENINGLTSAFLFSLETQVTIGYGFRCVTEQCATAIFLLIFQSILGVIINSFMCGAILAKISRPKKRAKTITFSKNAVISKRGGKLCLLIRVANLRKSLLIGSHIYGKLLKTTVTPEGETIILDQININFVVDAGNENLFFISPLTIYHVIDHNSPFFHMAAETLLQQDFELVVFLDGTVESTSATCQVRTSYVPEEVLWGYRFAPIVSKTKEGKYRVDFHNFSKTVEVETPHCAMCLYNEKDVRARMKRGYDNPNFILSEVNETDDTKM
- methodDescription: Thallium Flux Assay (ROMK channel functional thallium flux, FLIPR-Tetra)
- measurementSetup: HEK293 cells stably expressing hROMK (hKir1.1); 30 min compound incubation
reportedMetric: IC50 (µM)

Example entries begin here.
CC1=C(N2CCC3(CCN(C[C@H](O)c4nnc(-n5cnnn5)c(C)c4C)CC3)C2=O)COC1=O: 0.04
COC1CN(C2=C(C)C(=O)OC2)C(=O)C12CCN(C[C@H](O)c1ccc(-n3cnnn3)nc1)CC2 (single isomer, unassigned) [Example 115]: 0.06
COC1CN(CCc2ccc(-n3cnnn3)nn2)CCC12CCN(C1=C(C)C(=O)OC1)C2=O (single isomer, unassigned) [Example 257]: 0.1
CC1=C(N2CCC3(CCN(C[C@H](F)c4cnc(-n5cnnn5)cn4)CC3)C2=O)COC1=O: 0.05
CO[C@@H](CN1C2CCC1CC1(CCN(C3=C(C)C(=O)OC3)C1=O)C2)c1ccc(-n2cnnn2)nc1 (stereo partly shown): 0.03

(A) CC1=C(N2CCC3(CCN(C[C@H](O)c4nnc(-n5cnnn5)cc4C)CC3F)C2=O)COC1=O (single isomer, unassigned) [Example 198]
(B) CC1=C(N2C(=O)C3(CCN(C[C@@H](O)c4cnc(-n5cnnn5)cn4)CC3)CC2C)COC1=O (single isomer, unassigned)
Between A and B , whose recorded IC50 is greater? Mark your selection by writing its label. B

Taken from patent US9765074B2.
